System: Candida albicans
run_description: Antifungal activity against Candida albicans SP3902 assessed as inhibition of fungal growth incubated for 48 hrs
Format: functional
readout_kind: MIC95
Provide the measurement as a number trailed by its unit.

Lookup result for `CC[C@H](C)[C@H](N)C(=O)N[C@H](C(=O)N[C@H](CCCNC(=N)N)C(=O)N[C@@H](CCCNC(=N)N)C(=O)N[C@@H](Cc1c[nH]cn1)C(=O)N[C@H](C(=O)N[C@H](C(=O)N[C@H](C(=O)N[C@H](C(=O)N[C@H](CCCNC(=N)N)C(=O)N[C@@H](CCCNC(=N)N)C(=O)N[C@@H](Cc1c[nH]cn1)C(=O)N[C@H](C(=O)N[C@H](C(N)=O)[C@@H](C)CC)[C@@H](C)CC)[C@@H](C)CC)[C@@H](C)CC)[C@@H](C)CC)[C@@H](C)CC)[C@@H](C)CC` ; measured MIC95: 8 µM

###

Test system: Candida albicans
run_description: Antifungal activity against Candida albicans SP3902 assessed as inhibition of fungal growth incubated for 48 hrs
Format: functional
Field: MIC95. Provide a value for each of the compounds that follow.

# annotated cases, reported MIC95 shown
>>> result("CC(C)[C@H](N)C(=O)N[C@H](C(=O)N[C@H](CCCNC(=N)N)C(=O)N[C@@H](CCCNC(=N)N)C(=O)N[C@@H](Cc1c[nH]cn1)C(=O)N[C@H](C(=O)N[C@H](C(N)=O)C(C)C)C(C)C)C(C)C")
"> 64 µM"
>>> result("CC(=O)N1CCN(c2ccc(OCC3COC(Cn4ccnc4)(c4ccc(Cl)cc4Cl)O3)cc2)CC1 (stereo unspecified) [KETOCONAZOLE]")
"2 µM"
>>> result("C[C@@H]1[C@H](O)[C@@H](C)/C=C/C=C/C=C/C=C/C=C/C=C/C=C/[C@H](O[C@@H]2O[C@H](C)[C@@H](O)[C@H](N)[C@@H]2O)C[C@@H]2O[C@](O)(C[C@@H](O)C[C@@H](O)[C@H](O)CC[C@@H](O)C[C@@H](O)CC(=O)O[C@H]1C)C[C@H](O)[C@H]2C(=O)O [AMPHOTERICIN B]")
"0.25 µM"
>>> result("OC(Cn1cncn1)(Cn1cncn1)c1ccc(F)cc1F [FLUCONAZOLE]")
"4 µM"
>>> result("CC(C)[C@H](N)C(=O)N[C@H](C(=O)N[C@H](CCCNC(=N)N)C(=O)N[C@@H](CCCNC(=N)N)C(=O)N[C@@H](Cc1c[nH]cn1)C(=O)N[C@H](C(=O)N[C@H](C(=O)N[C@H](C(=O)N[C@H](C(=O)N[C@H](CCCNC(=N)N)C(=O)N[C@@H](CCCNC(=N)N)C(=O)N[C@@H](Cc1c[nH]cn1)C(=O)N[C@H](C(=O)N[C@H](C(N)=O)C(C)C)C(C)C)C(C)C)C(C)C)C(C)C)C(C)C)C(C)C")
"> 64 µM"

Tested system Candida albicans; MIC95 recorded for `CC[C@H](C)[C@H](N)C(=O)N[C@H](C(=O)N[C@H](CCCNC(=N)N)C(=O)N[C@@H](CCCNC(=N)N)C(=O)N[C@@H](Cc1c[nH]cn1)C(=O)N[C@H](C(=O)N[C@H](C(N)=O)[C@@H](C)CC)[C@@H](C)CC)[C@@H](C)CC` was 64 µM
